# assayed target: T1, Hof1, Q05080
# T1 sequence (Q05080 590-669, looked up): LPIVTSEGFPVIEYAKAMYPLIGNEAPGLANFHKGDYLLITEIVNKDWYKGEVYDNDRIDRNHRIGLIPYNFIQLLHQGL
# assay details: SPOT array
# assay context: median of control spots 4086
assay endpoint: SPOT intensity

VRVKKRPLIRPLNSS ... 0
RFKRHRLEFPFNESE ... 9

(1) NIKVLLNPKLGKPVK
(2) KNPRRQLQIPRQQPS
(3) LKRITSPPLPPRADS
(4) ALKQKKIPPPFKPHL
(5) GLRRARYKFPGQQKI
# ascending order, key=SPOT intensity Answer by listing the labels in the order asked for. 4, 2, 5, 1, 3
(4: 0, 2: 2, 5: 6, 1: 13, 3: 520)
